Experiment: soluble on expression in E. coli; label from the status in PepcDB or PDB records
Quantity: soluble on expression in E. coli

Some entries whose results are on file:
stdin: Given MCDKSKTVLDYTIEFLDKYIPEWFETGNKCPLFIFFSGPQGSGKSFTSIQIYNHLMEKYGGEKSIGYASIDDFYLTHEDQLKLNEQFKNNKLLQGRGLPGTHDMKLLQEVLNTIFNNNEHPDQDTVVLPKYDKSQFKGEGDRCPTGQKIKLPVDIFILEGWFLGFNPILQGIENNDLLTGDMVDVNAKLFFYSDLLWRNPEIKSLGIVFTTDNINNVYGWRLQQEHELISKVGKGMTDEQVHAFVDRYMPSYKLYLNDFVRSESLGSIATLTLGIDSNRNVYSTKTRCIE , state its recorded soluble on expression in E. coli.
stdout: soluble

stdin: I would be grateful if you could share the reported soluble on expression in E. coli for MSYYHHHHHHNYNIPTTENLYFQGAMVAPAGEQGRSSTALSDNPFDAKAWRLVDGFDDLTDITYHRHVDDATVRVAFNRPEVRNAFRPHTVDELYRVLDHARMSPDVGVVLLTGNGPSPKDGGWAFCSGGDQRIRGRSGYQYASGDTADTVDVARAGRLHILEVQRLIRFMPKVVICLVNGWAAGGGHSLHVVCDLTLASREYARFKQTDADVGSFDGGYGSAYLARQVGQKFAREIFFLGRTYTAEQMHQMGAVNAVAEHAELETVGLQWAAEINAKSPQAQRMLKFAFNLLDDGLVGQQLFAGEATRLAYMTDEAVEGRDAFLQKRPPDWSPFPRYF .
stdout: soluble

stdin: Form field: reported soluble on expression in E. coli of MASIKLKFRPSSVKGKKGVLSYQIIHYRLTRLIKTSYRIMPSEWDDSTGSLLISTQSECKARLLLIRDQTNWEMTRLQGIINDLERTGVEYTIDDIVASFRKIPSVESVFNFMQRCINKLERQKRGRTAEGYTSTMNSFIQFRKNEDLSFEAFDSELMEMYEAYLKEKGLVKNSTSYYMRIWRSVYNLAVEQGYTTDKKPFKHVYTGIDKTVKRAVPFKIIKMIKELDLSFEPQLELARDIFLFSFYTRGMSFIDMAHLKKSNLQNGILTYSRKKTGQRLTILWEELMQEIVDKYKDDTSEYLLPILRYCDINDRKQYKLRAKQIGRGLNKIGLRLELKAPLTFYVARHSWASIAQDRKVSTDIIREGLGHDNEKTTHIYLASISTSQIDRANQIILRGL
stdout: not soluble

stdin: For the sequence MASSTVPVSAAGSANETPEIPDNVGDWLRGVYRFATDRNDFRRNLILNLGLFAAGVWLARNLSDIDLMAPQPGV , what soluble on expression in E. coli is on record?
stdout: not soluble

stdin: # query: soluble on expression in E. coli of entry VRIPALERGPGLKDLAIFSRQLATMLGAGLTLLQALAILERQTENRKFREILKQVRTDVEGGMAFSEALSKHKIFSRLYVNLVRAGETSGGLDLILDRLASFLEKELELRGKIRSA
stdout: soluble

stdin: Form field: reported soluble on expression in E. coli of SRYAIYWTPEDGPLARFGRSWLGWDPVTAEPAAHPAIEDLPRDVALITQAPRKYGLHATLKPPFRLADGADVTDLHAAVVALCPYLAPVTLPGLKLDRIGGFLALVPAGNEEPLADLAAEVMRALDGFRAPLTEAELARRRPERLTPRQRGHLADWGYPYVLDDYRFHVTLTGELPEAELAEVVTVLEPLLEPILAEPVRIASLCLFAEASDGRFRMLERLPIT
stdout: not soluble

stdin: Record request: soluble on expression in E. coli value, item MKNIKMPVLVLAAEKDHITPPESVTAFFEKIPSKDKKLLLSDKGHIGLTVSGSSHRKIWPEAIKWVVERSK
stdout: not soluble

stdin: // query soluble on expression in E. coli value for entry MGSDKIHHHHHHMGVVETAEWLHLYYGRPEKLCEKFTKYIPLPKERLYRFLISKGMYRPVMRGEREIKELEKKEVWKELRAEYEKLKDWLKGPDVPVFILLSDSYNRTVQEEYNGRAGLSMRHVIFLFVCGRNSVEELKVLLAHEYHHICRLHQIETKETEYTLLDTMIMEGLAEQAVTERYSEKNNAPWTTYLSKEEAIYYWKNVVHERISIKRGTREHDILLNGFHSYPKMLGYALGFHIVKDCVTLEGEDTLSLLPIDAKEILNKANTFHI
stdout: not soluble

stdin: What value of soluble on expression in E. coli has been recorded for this entry: MGSDKIHHHHHHMSYGYDKNADDIMKNADHIFEIKGIMRFPDRLKESIGDISIRSFAKKCGLSEGVMRNYLAGKTYPSLDKLALMAEVSNKPLDWLVAGTEHNFNELNEPGSKYVIGINLEEYALIPGYRVQVSAGHGALNCDQQDPVRYLAFRRKWLKYRGFEEHELAIVWAKGDSMEPTIHSNDTLVVHLGRNSPADGHIYIFRNGDDLFVKRYQNAFGSWRLISDNPVYDKLDIPKHEQHQFEVVGQVVHIAKDIGD
stdout: not soluble

stdin: What soluble on expression in E. coli value was documented for this sequence, MIEFKNVSKHFGPTQVLHNIDLNIRQGEVVVIIGPSGSGKSTLLRCINKLEEITSGDLIVDGLKVNDPKVDERLIRQEAGMVFQQFYLFPHLTALENVMFGPLRVRGVKKEEAEKQAKALLAKVGLAERAHHYPSELSGGQQQRVAIARALAVKPKMMLFDEPTSALDPELRHEVLKVMQDLAEEGMTMVIVTHEIGFAEKVASRLIFIDKGRIAEDGSPQALIENPPSPRLQEFLQHVS ?
stdout: not soluble

New cases:
stdin: Can you share its soluble on expression in E. coli? I mean this sequence: MGSDKIHHHHHHMHFLDDSLLPENQEKLVIQVAPYGPQWLPGDSDDIPVTMDEQVQKAVDCYNAGATVLHVHVREADGKGSKRLSMFNEMLARLREAVPGMVLQVGGSISFAPENDNQAAKWLNDDTRHMLAELSPRPDQVTVAINTSQMNVMELMTEADVAGTSLTNPALQAAYRDMIVPSNPSWHVEHIKRLVANGIQPHFMLGNLTQLETVERLIRRGVYTGPLVLNYVAIGGGAAGLHPADMVEFARRTPDGAVLTVETLNRNVVPLNTMAIAMGLHVRVGIEDTLYGPDGKRATSVQQIEKMVNIARELNREIASGTDAHRIYQTGTRWSSTEETLNRLGMVPNRQPEQRGVPPRKAA
stdout: not soluble

stdin: Form field: reported soluble on expression in E. coli of MTRSRRGALARSSEGGPFPTADPVADRALCGWRVRSVIDLPELPLWTRDDRLPDVTIAFGRVTPVESASPGMNWHVVGEGRFRFTVASVGSYRISRGRVITIDPQAGVVASAVRQYLLGTAFGVLCHQRGLLPLHASCVAINGRAVAIAGASGAGKSSLAAALVRLGYPLLGDDVCVIDASEINAPHVLPAIPRLKLWRDVLDTFGLIVDPAARILEGIDKYQAQALADRPPPPPPQVPLPLGVVYYLDQAESPDDEGFHAIRGAERAAALAGAVYRRKMGLAMGLLPQIFTATMTVGALVPGHRLLRHGDLSGLDALARSVAARQEGRGLEHHHHHH
stdout: not soluble

// data source = the DeepSol protein solubility set
